# System: 422866-222-R5-J1-PDC complex spheroid viability;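 also: spheroids exposed to compounds for one week before readout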
# EXPERIMENT_NOTES: Anticancer human tumor 422866-222-R5-J1-PDC patient-derived pancreatic adenocarcinoma cell line growth inhibition [POLQ]
# MEASUREMENT_CONTEXT: second compound 0.0316 µM; first compound 3.16 µM; stronger effect = lower value
Each record's viability, T/C is compared with low interval: < 30%; middle interval: ≥ 30% and < 90%; high interval: ≥ 90% to give its class.

COMPOUND: COc1cccc2c1C(=O)c1c(O)c3c(c(O)c1C2=O)CC(O)(C(=O)CO)CC3OC1CC(N)C(O)C(C)O1 (stereo unspecified) + Cc1cccc(N(C)C(=O)C2C(O)CCN2c2nc(C)cc(C(F)(F)F)c2C#N)c1
SYSTEM_NAME: 422866-222-R5-J1-PDC complex spheroid viability;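 also: spheroids exposed to compounds for one week before readout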
CATEGORY: middle interval
--
COMPOUND: C=CC(=O)N1CCN(c2nc(=O)n(-c3c(C)ccnc3C(C)C)c3nc(-c4c(O)cccc4F)c(F)cc23)C(C)C1 (stereo unspecified) + COC1C(OC(N)=O)C(O)C(Oc2ccc3c(O)c(NC(=O)c4ccc(O)c(CC=C(C)C)c4)c(=O)oc3c2C)OC1(C)C
SYSTEM_NAME: 422866-222-R5-J1-PDC complex spheroid viability;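 also: spheroids exposed to compounds for one week before readout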
CATEGORY: low interval
--
COMPOUND: CC(C)n1c(=O)n(C)c2cnc3cc(F)c(-c4ccc(OCCCN5CCCCC5)nc4)cc3c21 + Cc1cccc(N(C)C(=O)C2C(O)CCN2c2nc(C)cc(C(F)(F)F)c2C#N)c1
SYSTEM_NAME: 422866-222-R5-J1-PDC complex spheroid viability;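 also: spheroids exposed to compounds for one week before readout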
CATEGORY: high interval
--
COMPOUND: C=CC(=O)N1CCN(c2nc(=O)n(-c3c(C)ccnc3C(C)C)c3nc(-c4c(O)cccc4F)c(F)cc23)C(C)C1 (stereo unspecified) + Nc1ccc(C#CCN(C(=O)Cc2ncc(C(F)(F)F)cc2C(F)(F)F)c2ccc(F)cc2)nn1
SYSTEM_NAME: 422866-222-R5-J1-PDC complex spheroid viability;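 also: spheroids exposed to compounds for one week before readout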
CATEGORY: low interval
--
COMPOUND: O=C(Nc1ccc(O)c(NS(=O)(=O)c2ccc(F)cc2)c1)c1ccc(-c2ccccc2)cc1 + COC1C(OC(N)=O)C(O)C(Oc2ccc3c(O)c(NC(=O)c4ccc(O)c(CC=C(C)C)c4)c(=O)oc3c2C)OC1(C)C
SYSTEM_NAME: 422866-222-R5-J1-PDC complex spheroid viability;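 also: spheroids exposed to compounds for one week before readout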
CATEGORY: high interval
--
COMPOUND: COc1ccc([C@@H](O)c2cc(-c3ncnc4cc(N5CCOCC5)ccc34)c(F)cc2Cl)nn1 + COC1C(OC(N)=O)C(O)C(Oc2ccc3c(O)c(NC(=O)c4ccc(O)c(CC=C(C)C)c4)c(=O)oc3c2C)OC1(C)C
SYSTEM_NAME: 422866-222-R5-J1-PDC complex spheroid viability;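 also: spheroids exposed to compounds for one week before readout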
CATEGORY: middle interval
--
COMPOUND: COc1cc2cc(C(=O)CCC(=O)O)sc2cc1OC + Cc1cccc(N(C)C(=O)C2C(O)CCN2c2nc(C)cc(C(F)(F)F)c2C#N)c1
SYSTEM_NAME: 422866-222-R5-J1-PDC complex spheroid viability;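 also: spheroids exposed to compounds for one week before readout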
CATEGORY: middle interval
--
COMPOUND: CC1COCCN1c1cc(-c2ccnn2C)c2ccnc(-c3ccn[nH]3)c2n1 (stereo unspecified) + COC1C(OC(N)=O)C(O)C(Oc2ccc3c(O)c(NC(=O)c4ccc(O)c(CC=C(C)C)c4)c(=O)oc3c2C)OC1(C)C
SYSTEM_NAME: 422866-222-R5-J1-PDC complex spheroid viability;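 also: spheroids exposed to compounds for one week before readout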
CATEGORY: middle interval
--
COMPOUND: C#Cc1c(F)ccc2cc(O)cc(-c3ncc4c(N5CC6CCC(C5)N6)nc(OCC56CCCN5CC(F)C6)nc4c3F)c12 (stereo unspecified) + Cc1cccc(N(C)C(=O)C2C(O)CCN2c2nc(C)cc(C(F)(F)F)c2C#N)c1
SYSTEM_NAME: 422866-222-R5-J1-PDC complex spheroid viability;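 also: spheroids exposed to compounds for one week before readout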
CATEGORY: middle interval
--
COMPOUND: Nc1ccn(C2OC(CO)C(O)C2(F)F)c(=O)n1 (stereo unspecified) + Cc1cccc(N(C)C(=O)C2C(O)CCN2c2nc(C)cc(C(F)(F)F)c2C#N)c1
SYSTEM_NAME: 422866-222-R5-J1-PDC complex spheroid viability;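 also: spheroids exposed to compounds for one week before readout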
CATEGORY: middle interval
